Target: OX2 (Homo sapiens, UniProt O43614)
Sequence (O43614 1-444): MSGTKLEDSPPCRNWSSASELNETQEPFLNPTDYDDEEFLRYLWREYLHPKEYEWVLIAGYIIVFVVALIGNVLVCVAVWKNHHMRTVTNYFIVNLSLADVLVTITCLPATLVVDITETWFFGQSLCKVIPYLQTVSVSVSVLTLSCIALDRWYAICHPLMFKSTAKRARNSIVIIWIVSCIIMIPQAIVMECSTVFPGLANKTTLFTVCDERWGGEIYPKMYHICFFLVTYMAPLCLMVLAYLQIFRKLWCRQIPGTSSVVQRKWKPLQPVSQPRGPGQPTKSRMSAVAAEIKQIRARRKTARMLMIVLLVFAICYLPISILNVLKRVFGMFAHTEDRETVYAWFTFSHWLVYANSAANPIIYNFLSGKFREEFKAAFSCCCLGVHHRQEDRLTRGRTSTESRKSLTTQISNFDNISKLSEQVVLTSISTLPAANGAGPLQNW
Assay: Measurement of orexin receptor-binding ability ([125I]-OX-A, cell membranes, OX2)
Design: expressed in transfected cells; host or cells: CHO cells (membrane preparation)
Details: OX2 (IC50) nM, membranes of recombinant CHO cells expressing OX2, 0.2 nM [125I]-OX-A
Method: 1. Measurement of Orexin Receptor-Binding Ability The assay was carried out using a 96-well Wheat Germ Agglutinin Flash Plate (PerkinElmer). The volume in a single assay well was 100 ul, and the composition of the reaction solution was as follows: […] Cell membranes were prepared from recombinant CHO cells that expressed OX2 or OX1. […] Finally, the radioactivity of each well was measured using a scintillation counter (TopCount, PerkinElmer).
Each entry below lists one item and its recorded log10 IC50 value.
PROPERTY LABEL: log10 IC50 (log10 of the value in nM)

> print(dat)
                                    compound  property.label  endpoint.value
 1  Cc1ncc(OCC2(c3ccccc3Cl)CC2C(=O)Nc2ccc(Cl)cn2)c(C)n1 (stereo not shown)      log10 IC50            1.56
 2  Cc1nc(CO)ncc1OC[C@@]1(c2cccc(F)c2)C[C@H]1C(=O)Nc1ccc(F)cn1      log10 IC50            0.41
 3  Cc1ncc(OC[C@@]2(c3ccc(F)cc3)C[C@H]2C(=O)Nc2ccccn2)c(C)n1      log10 IC50            2.04
 4  Cc1ncc(OC[C@@]2(c3ccccc3)C[C@H]2C(=O)Nc2cccc(C#N)c2)c(C)n1      log10 IC50            1.20
 5  COCc1cccc(NC(=O)[C@@H]2C[C@@]2(COc2cnc(C)nc2C)c2ccccc2)c1      log10 IC50            1.08
 6  COCc1cc(NC(=O)[C@@H]2C[C@@]2(COc2cnc(C)nc2C)c2cccc(F)c2)ncc1F      log10 IC50            0.79
 7  COc1cc(NC(=O)[C@@H]2C[C@@]2(COc2cnc(C)nc2C)c2cccc(F)c2)ncc1F      log10 IC50            0.36
 8  CCc1ncc(OC[C@@]2(c3ccccc3)C[C@H]2C(=O)Nc2ccc(F)cn2)c(C)n1      log10 IC50            2.03
 9  Cc1ncc(OC[C@@]2(c3cccc(F)c3)C[C@H]2C(=O)Nc2ccc(F)cn2)c(C)[n+]1[O-]      log10 IC50            1.20
10  Cc1nc(C)c(OC[C@@]2(c3cccc(F)c3)C[C@H]2C(=O)Nc2ccc(F)cn2)c(=O)[nH]1      log10 IC50            0.78
11  Cc1nc(C)[n+]([O-])cc1OC[C@@]1(c2cccc(F)c2)C[C@H]1C(=O)Nc1ccc(F)cn1      log10 IC50            0.78
12  Cc1ncc(OCC2(c3ccc(F)cc3)CC2C(=O)Nc2ccc(Cl)cn2)c(C)n1 (stereo not shown)      log10 IC50            1.36
13  Cc1ncc(OC[C@@]2(c3cccc(C#N)c3)C[C@H]2C(=O)Nc2ccc(F)cn2)c(C)n1      log10 IC50            1.15
14  Cc1ncc(OC[C@@]2(c3cccc(F)c3)C[C@H]2C(=O)Nc2ccc(F)nc2)c(C)n1      log10 IC50            1.11
15  Cc1ncc(OCC2(c3ccccc3Cl)CC2C(=O)Nc2ccc(C#N)cn2)c(C)n1 (stereo not shown)      log10 IC50            1.51
16  Cc1ncc(OC[C@@]2(c3ccccc3)C[C@H]2C(=O)Nc2cc(F)cc(C#N)c2)c(C)n1      log10 IC50            1.26

----------
biological target: OX1 (Homo sapiens); experiment: Measurement of orexin receptor-binding ability ([125I]-OX-A, cell membranes, OX1); set-up: expressed in transfected cells; host or cells: CHO cells (membrane preparation)
Sequence (O43613 whole entry): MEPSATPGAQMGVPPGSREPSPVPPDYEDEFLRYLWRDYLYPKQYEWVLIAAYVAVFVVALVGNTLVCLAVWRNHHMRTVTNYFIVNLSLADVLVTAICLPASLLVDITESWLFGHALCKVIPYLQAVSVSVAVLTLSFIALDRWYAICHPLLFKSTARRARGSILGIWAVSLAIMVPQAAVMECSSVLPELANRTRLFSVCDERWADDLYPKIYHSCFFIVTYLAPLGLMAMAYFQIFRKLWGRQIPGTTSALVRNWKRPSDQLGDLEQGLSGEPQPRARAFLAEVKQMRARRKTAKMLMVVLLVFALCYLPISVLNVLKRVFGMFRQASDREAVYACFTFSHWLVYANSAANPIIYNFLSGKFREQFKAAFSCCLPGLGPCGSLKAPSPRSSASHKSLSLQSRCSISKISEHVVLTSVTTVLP
Define the label as true when IC50 is strictly less than 70 nM and as false in all remaining cases.

> print(dat)
                                    compound  assigned.label
 1  Cc1ncc(OC[C@@]2(c3ccccc3)C[C@H]2C(=O)Nc2cc(C)c(F)cn2)c(C)n1            true
 2  Cc1ncc(OC[C@@]2(c3cccc(F)c3)C[C@H]2C(=O)Nc2ccc(CF)cn2)c(C)n1            true
 3  COCc1nc(C)ncc1OC[C@@]1(c2cccc(F)c2)C[C@H]1C(=O)Nc1ccc(C#N)cn1            true
 4  Cc1ncc(OC[C@@]2(c3ccc(Br)cc3)C[C@H]2C(=O)Nc2ccc(F)cn2)c(C)n1            true
 5  Cc1ncc(OC[C@@]2(c3cccc(F)c3)C[C@H]2C(=O)Nc2ccc(F)cc2)c(C)n1            true
 6  Cc1ncc(OC[C@@]2(c3cccs3)C[C@H]2C(=O)Nc2ccc(F)cn2)c(C)n1           false
 7  Cc1ncc(OC[C@@]2(c3cccc(F)c3)C[C@H]2C(=O)Nc2ccccn2)c(C)n1            true
 8  Cc1ncc(OCC2(c3ccccc3F)CC2C(=O)Nc2ccc(Cl)cn2)c(C)n1 (stereo not shown)           false
 9  Cc1ncc(OC[C@@]2(c3ccccc3)C[C@H]2C(=O)Nc2cc(Cl)ccn2)c(C)n1            true
10  Cc1ncc(OC[C@@]2(c3cccc(F)c3)C[C@H]2C(=O)Nc2ccc(F)cn2)c(CF)n1            true
11  COCc1nc(C)ncc1OC[C@@]1(c2cccc(F)c2)C[C@H]1C(=O)Nc1ccc(C(F)(F)F)cn1            true
12  COCc1cc(NC(=O)[C@@H]2C[C@@]2(COc2cnc(C)nc2C)c2cccc(F)c2)ncc1F            true
13  Cc1ccc(NC(=O)[C@@H]2C[C@@]2(COc2cnc(C)nc2C)c2cccc(F)c2)nc1           false
14  Cc1ncc(OCC2(c3cc(F)ccc3F)CC2C(=O)Nc2ccc(F)cn2)c(C)n1 (stereo not shown)            true
15  COc1cc(F)cc([C@]2(COc3cnc(C)nc3C)C[C@H]2C(=O)Nc2ccc(F)cn2)c1           false
16  Cc1ncc(OC[C@@]2(c3cccc(F)c3)C[C@H]2C(=O)Nc2ccc(F)c(O)n2)c(C)n1           false
17  Cc1ncc(OC[C@@]2(c3cccc(I)c3)C[C@H]2C(=O)Nc2ccc(F)cn2)c(C)n1           false
18  CCc1nc(C)ncc1OC[C@@]1(c2ccc(F)cc2)C[C@H]1C(=O)Nc1ccccn1            true
19  COc1ccnc(NC(=O)[C@@H]2C[C@@]2(COc2cnc(C)nc2C)c2ccccc2)c1            true
20  Cc1ncc(OCC2(c3cccc(Br)c3)CC2C(=O)Nc2ccc(F)cn2)c(C)n1 (stereo not shown)            true
21  Cc1ncc(OC[C@@]2(c3cccc(F)c3)C[C@H]2C(=O)Nc2ccc(I)cn2)c(C)n1            true
22  CCc1nc(C)ncc1OC[C@@]1(c2cccc(F)c2)C[C@H]1C(=O)Nc1ccc(F)cn1            true
23  COCc1nc(C)ncc1OC[C@@]1(c2cccc(F)c2)C[C@H]1C(=O)Nc1ccc(Cl)cn1            true
24  COCc1nc(C)ncc1OC[C@@]1(c2ccc(F)cc2)C[C@H]1C(=O)Nc1ccc(F)cn1            true
25  Cc1ncc(OC[C@@]2(c3cc(F)cc(F)c3)C[C@H]2C(=O)Nc2ccc(C#N)cn2)c(C)n1           false
26  Cc1ncc(OC[C@@]2(c3cc(F)cc(F)c3)C[C@H]2C(=O)Nc2ccc(Cl)cn2)c(C)n1            true
27  Cc1ncc(OCC2(c3ccc(F)cc3)CC2C(=O)Nc2ccc(Cl)cn2)c(C)n1 (stereo not shown)            true
28  COc1cccc([C@]2(COc3cnc(C)nc3C)C[C@H]2C(=O)Nc2ccc(F)cn2)c1            true
29  Cc1ncc(OC[C@@]2(c3ccccc3)C[C@H]2C(=O)Nc2cc(F)cc(C#N)c2)c(C)n1           false
30  COCc1nc(C)ncc1OC[C@@]1(c2ccc(F)c(F)c2)C[C@H]1C(=O)Nc1ccccn1            true
31  Cc1ncc(OCC2(c3cccc(F)c3)CC2C(=O)Nc2cccnc2)c(C)n1 (stereo not shown)           false

The reported numbers originate from patent US8268848B2.
